- assay overview: in vivo
- condition info: wild-type, zebrafish (Danio rerio), in vivo, Zebrafish LC50, zebrafish embryos, 96 hpf, 72 h exposure; mean ± SEM; footnote c
reported endpoint: LC50 at 72 h (nM)
Numbers only, in nM.

Query: I have this compound here, CC[C@@]1(O)C(=O)OCc2c1cc1n(c2=O)Cc2cc3ccccc3nc2-1 [Camptothecin 13, camptothecin] , and I need its recorded LC50 at 72 h.
Result: 3.84

---

- assay overview: in vivo
- condition info: wild-type, zebrafish (Danio rerio), in vivo, LC50, zebrafish embryos; Figure 5 toxicity scale
reported endpoint: LC50 at 72 h
Just the number plus its unit, please.

Query: I have this compound here, CC(C)Cn1cnc2c(N)nc3ccccc3c21 , and I need its recorded LC50 at 72 h.
Result: 351 µM

With those in mind, consider the next compound.
Query: I have this compound here, CC[C@@]1(O)C(=O)OCc2c1cc1n(c2=O)Cc2cc3ccccc3nc2-1 , and I need its recorded LC50 at 72 h.
Result: 0.0038 µM
